- experimental_target: Epidermal growth factor receptor (Homo sapiens)
- assay_remarks: Inhibition of EGFR autophosphorylation in EGF-stimulated human A431 cells after 1 hr by immunoblotting
- Format: cell-based, A-431
observable: pIC50
Keep it numeric: pIC50 is minus log10 of the concentration in mol/L.

QUERY: Any idea what pIC50 was measured for O=C(c1cc2cc(O)ccc2[nH]1)c1cc2c(Nc3ccc(F)c(Cl)c3)ncnc2s1 ?
RESULT: 7.00

QUERY: Next compound: O=C(c1cc2ccccc2[nH]1)c1cc2c(Nc3cccc(Cl)c3)ncnc2s1
RESULT: 6.52

====

For each entry below, report its inhibition value.
- experimental_target: Epidermal growth factor receptor (Homo sapiens, UniProt P00533)
- Sequence (P00533 whole entry): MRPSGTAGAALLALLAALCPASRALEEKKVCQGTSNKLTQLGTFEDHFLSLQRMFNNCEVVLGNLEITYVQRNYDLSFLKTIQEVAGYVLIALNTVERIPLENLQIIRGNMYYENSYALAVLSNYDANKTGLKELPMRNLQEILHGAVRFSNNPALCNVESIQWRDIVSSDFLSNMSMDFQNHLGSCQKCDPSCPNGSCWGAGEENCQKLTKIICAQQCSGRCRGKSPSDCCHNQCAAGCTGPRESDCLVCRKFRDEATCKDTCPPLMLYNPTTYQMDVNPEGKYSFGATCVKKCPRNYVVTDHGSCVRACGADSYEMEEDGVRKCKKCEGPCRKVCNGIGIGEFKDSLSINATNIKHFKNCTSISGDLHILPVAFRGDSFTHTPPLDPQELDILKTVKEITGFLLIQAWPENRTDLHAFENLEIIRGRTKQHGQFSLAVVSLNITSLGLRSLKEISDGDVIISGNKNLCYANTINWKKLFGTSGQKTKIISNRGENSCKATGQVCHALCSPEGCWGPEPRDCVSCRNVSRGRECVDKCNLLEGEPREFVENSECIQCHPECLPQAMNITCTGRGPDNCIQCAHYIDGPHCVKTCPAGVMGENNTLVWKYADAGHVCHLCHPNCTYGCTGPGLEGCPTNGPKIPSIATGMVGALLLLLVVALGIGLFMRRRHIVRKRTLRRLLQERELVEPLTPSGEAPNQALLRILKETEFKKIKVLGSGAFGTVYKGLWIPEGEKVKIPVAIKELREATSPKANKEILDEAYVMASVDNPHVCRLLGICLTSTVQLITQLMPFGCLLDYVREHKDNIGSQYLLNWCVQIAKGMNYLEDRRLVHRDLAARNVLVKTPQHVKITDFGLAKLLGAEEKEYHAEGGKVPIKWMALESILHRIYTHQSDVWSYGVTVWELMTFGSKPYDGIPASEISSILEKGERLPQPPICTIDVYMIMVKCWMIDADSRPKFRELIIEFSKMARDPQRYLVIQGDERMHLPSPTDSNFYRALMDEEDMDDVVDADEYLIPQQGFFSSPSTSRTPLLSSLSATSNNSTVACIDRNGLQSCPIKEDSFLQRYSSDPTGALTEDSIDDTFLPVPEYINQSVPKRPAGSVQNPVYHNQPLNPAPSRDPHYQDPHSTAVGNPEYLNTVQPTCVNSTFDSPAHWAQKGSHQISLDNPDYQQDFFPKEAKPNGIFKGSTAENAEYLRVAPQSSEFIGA
- assay_remarks: Inhibition of EGFR using poly(Glu,Tyr)4:1 as substrate and [gamma33P]ATP at 1 uM after 60 mins by scintillation counting
Answer format: numeric, % implied, no suffix.

QUERY: Any idea what inhibition was measured for O=C(c1cc2cc(O)ccc2[nH]1)c1cc2cncnc2[nH]1 ?
RESULT: 0

QUERY: Next compound: O=C(c1cc2cc(O)ccc2[nH]1)c1cc2c(Nc3ccc(F)c(Cl)c3)ncnc2s1
RESULT: 98

QUERY: Next compound: O=C(c1cc2ccccc2o1)c1cc2c(Nc3ccc(F)c(Cl)c3)ncnc2s1
RESULT: 85

QUERY: Next compound: C#Cc1cccc(Nc2ncnc3[nH]c(C(=O)c4cc5ccccc5[nH]4)cc23)c1
RESULT: 83

QUERY: Next compound: O=C(c1cc2ccccc2[nH]1)c1cc2c(Nc3ccc(Br)cc3F)ncnc2[nH]1
RESULT: 50

Just for reference, ChEMBL document CHEMBL1926681 is where these values come from.
